- Read-out: Tumor necrosis factor (Homo sapiens) (UniProt P01375)
- Sequence (P01375 whole entry, looked up): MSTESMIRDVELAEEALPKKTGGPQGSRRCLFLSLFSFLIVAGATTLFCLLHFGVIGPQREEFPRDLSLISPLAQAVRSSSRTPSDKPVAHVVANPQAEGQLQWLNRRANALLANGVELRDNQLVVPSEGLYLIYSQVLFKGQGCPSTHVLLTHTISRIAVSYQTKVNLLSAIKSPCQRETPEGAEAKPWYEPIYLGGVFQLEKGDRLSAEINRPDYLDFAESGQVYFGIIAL
- protocol-details: BSK_LPS_TNFa: BioMAP Diversity Plus: LPS Assay for Tumour Necrosis Factor alpha (TNFa) Biomarker Activity (AID 2283085)
- experimental-context: primary human HUVEC with PBMC; actives raise or lower the signal
Active and inactive are the calls of the source. The calls were made as follows: active = hit-call score of the fitted dose curve at least 0.9, where 1 is the maximum; inactive = score below 0.9.
Select the correct class. Options are active, inactive and nothing else.

(Q) Call for entry "N#CC(Br)Br" :
(A) inactive

Continuing:
(Q) Call for entry "ClCCOCCCl" :
(A) inactive

(Q) Call for entry "Cc1ccc(N=C=O)cc1N=C=O" :
(A) inactive

(Q) Call for entry "N#CC(Br)(Br)C(N)=O" :
(A) inactive

(Q) Call for entry "CN(C)c1ccc(C(=O)c2ccc(N(C)C)cc2)cc1" :
(A) inactive
